- Tested on: HCT-116 colon
- Procedure details: NCI tumour cell line growth inhibition, 48 h
Measurement label: TGI

(Q) Give the reported TGI for Cc1nc(Nc2ccccc2)sc1C(=O)NNC(N)=O (system: HCT-116 colon).
(A) > 100 µM

(Q) And then CCOC(=O)C1C(C(C)C)C2(C#N)C(=N)OC1(C)C2(C#N)C#N (stereo not drawn) , what is it?
(A) > 100 µM

(Q) And then CC(=O)O[C@H]1C(=O)[C@@]2(C)[C@H]([C@H](OC(=O)c3ccccc3)[C@]3(O)C[C@H](OC(=O)[C@H](OC(=O)CCC(=O)OC4CCC(S/N=C(N)/N=C(\N)N(C)C)CC4)[C@@H](NC(=O)c4ccccc4)c4ccccc4)C(C)=C1C3(C)C)[C@]1(OC(C)=O)CO[C@@H]1C[C@@H]2O (stereo partly drawn) , what is it?
(A) > 50 µM

(Q) And then N=C(N)C(N=Nc1ccccc1)C(=N)N (stereo not drawn) , what is it?
(A) > 100 µM

(Q) And then N#Cc1c(C(N)=O)ncn1Cc1ccccc1 , what is it?
(A) > 100 µM

(Q) And then Cc1cc(C)n(C(=O)C(C)Sc2nnc(SC(C)C(=O)n3nc(C)cc3C)s2)n1 (stereo not drawn) , what is it?
(A) > 100 µM

(Q) And then COc1ccc(/C=c2/[nH]c(=O)/c(=C\c3ccc(OCc4ccccc4)cn3)[nH]c2=O)cc1 , what is it?
(A) > 100 µM

(Q) And then O=C1CC(n2cccc2)c2cc(Br)sc21 (stereo not drawn) , what is it?
(A) > 100 µM

(Q) And then CNC(=O)C(C)NC(=O)C(Cc1ccccc1)NC(=O)OC(C)(C)C (stereo not drawn) , what is it?
(A) > 100 µM

(Q) And then O=C(/C=C(\O)C(=O)O)/C=C(\O)c1ccccc1Cl , what is it?
(A) > 100 µM

(Q) And then CCN(CC)/C(=C\Cl)Nc1ccccn1 , what is it?
(A) > 100 µM

(Q) And then CCOC(=O)C(NC(=O)NCc1ccc(F)cc1)C(F)(F)F (stereo not drawn) , what is it?
(A) > 100 µM

(Q) And then CC1CC(C)C(=O)C(C(=O)CC2CC(=O)NC2=O)C1 (stereo not drawn) , what is it?
(A) > 100 µM

(Q) And then O=C(O/N=C1/CCC/C1=C\c1ccccc1)c1ccccc1 , what is it?
(A) > 100 µM

(Q) And then CCC[CH2][Sn]([CH2]CCC)([O]C(=O)c1cccc(F)c1F)[O][Sn]([CH2]CCC)([CH2]CCC)[O]C(=O)c1cccc(F)c1F , what is it?
(A) 0.848 µM

(Q) And then O=C(c1cccs1)c1c(C(F)(F)F)n([O-])c2cc(C(F)(F)F)ccc2[n+]1=O , what is it?
(A) 0.176 µM

(Q) And then Cn1cc(C(=O)/C(Cl)=C(\Cl)C(=O)O)c2ccccc21 , what is it?
(A) > 100 µM

(Q) And then C=C1[C@H](OCC(C)C)[C@@H](OCC(C)C)[C@@H](O)C(C)(C)/C=C/[C@H](C)C(=O)[C@@]2(O)C[C@H](C)[C@H](O)[C@@H]2[C@H]1OCC(C)C , what is it?
(A) > 7.5 µM

(Q) And then COc1cc(-c2ccc(-[n+]3nc(-c4ccc([N+](=O)[O-])cc4)nn3-c3ccc([N+](=O)[O-])cc3)c(OC)c2)ccc1-[n+]1nc(-c2ccc([N+](=O)[O-])cc2)nn1-c1ccc([N+](=O)[O-])cc1 , what is it?
(A) > 31.6 µM

(Q) And then C=CCN1C(=O)N/C(=C\c2ccc(Cl)cc2)C1=O , what is it?
(A) > 100 µM

(Q) And then C=CCOCCCC(=O)C(=[N+]=[N-])C(=O)OC , what is it?
(A) > 100 µM

(Q) And then CO/C=C/c1cc2c(cc1C(OC)OC)OCO2 , what is it?
(A) > 100 µM

(Q) And then O=C(CSc1nc2sc3c(c2c(=O)n1-c1ccccc1)CCCCC3)N/N=C/c1ccc(F)cc1 , what is it?
(A) 12 µM

(Q) And then CCOC(=O)C(=O)Nc1ccc([N+](=O)[O-])cc1C#N , what is it?
(A) > 100 µM

(Q) And then N=c1oc2cc(O)c(O)cc2cc1C(N)=O , what is it?
(A) > 100 µM

(Q) And then O=C1CC(N2C(=O)/C(=C/C(Cl)=C\c3ccc([N+](=O)[O-])cc3)SC2=S)C(=O)N1c1ccc(Cl)cc1 (stereo not drawn) , what is it?
(A) 3.04 µM

(Q) And then N#C/C(=C\c1ccc(Br)cc1)n1nnc2cc(F)c(F)cc21 , what is it?
(A) 3.44 µM

(Q) And then CCN(CC)CCN1CCN=c2c3cc(OC)ccc3n3cnc4ccc1c2c43 , what is it?
(A) 2.84 µM

---

Field: TGI. Provide a value for each of the molecules that follow.
- System: RXF 393 renal
- Procedure details: NCI tumour cell line growth inhibition, 48 h

(Q) Would you mind telling me what TGI value was observed for COc1ccc(-c2cc(=O)c3c(O)c(OC)c(O)cc3o2)cc1O ?
(A) > 64.8 µM

(Q) And then [N-]=[N+]=Nc1cc(=O)n(-c2ccccc2)c(=O)n1-c1ccccc1 , what is it?
(A) > 100 µM

(Q) And then BrC12C3C4C5C(C(C43)C13OCCO3)C52 (centres undefined) , what is it?
(A) > 100 µM

(Q) And then O[C@H]1[C@H]2[C@H](O)CCCN2C[C@H]1O , what is it?
(A) > 100 µM

---

- System: EKVX NSCLC
- Procedure details: NCI tumour cell line growth inhibition, 48 h
Measurement label: TGI

(Q) Give the reported TGI for O=C(/C=C/c1ccc2c(c1)OCO2)c1ccccc1 (system: EKVX NSCLC).
(A) 31.1 µM

(Q) And then CC(C)(C)c1cc(N=NC(=S)NCc2ccccc2)cc(C(C)(C)C)c1O , what is it?
(A) > 100 µM

(Q) And then Cc1c(C(=O)Nc2ccc(Cl)c(C(F)(F)F)c2)oc2cc(O)ccc2/c1=N\NC(N)=S , what is it?
(A) > 100 µM

(Q) And then CN1CCN(Cc2ccc(NC(=O)c3[nH]ncc3Nc3ccnc4ccsc34)cc2)CC1 , what is it?
(A) 9.81 µM

(Q) And then Cc1nn(-c2ccccc2)c2nc3c(c(C)nn3-c3ccccc3)c(-c3ccccc3Br)c12 , what is it?
(A) > 100 µM

(Q) And then CC(=O)[CH-]C(C)=O.CC(=O)[CH-]C(C)=O.CC(=O)[CH-]C(C)=O.[Cl-].[Hf+4] , what is it?
(A) > 100 µM

(Q) And then COc1ccc(OC)c2sc(N3C(=O)/C(=C/c4ccccc4S)N=C3c3ccccc3)nc12 , what is it?
(A) > 100 µM

(Q) And then Cc1ccc(C2=NN(C)COC2C(F)(F)F)cc1 (stereo not drawn) , what is it?
(A) > 100 µM

(Q) And then COc1ccc(C(=O)c2ccc(OC)cc2OC)cc1 , what is it?
(A) > 100 µM

(Q) And then CC1=C(C#N)C(=O)N(/N=C/c2ccc(Cl)cc2)C(=O)/C1=c1\o/c(=C2/C(=O)N(/N=C/c3ccc(Cl)cc3)C(=O)C(C#N)=C2C)c2nccnc12 , what is it?
(A) > 100 µM

(Q) And then C[N+]1(C)C2CCC1CC(OC(=O)C(CO)c1ccccc1)C2 (stereo not drawn) , what is it?
(A) > 100 µM

(Q) And then NC1=NN(c2ccccc2)C(=O)C1C(=O)C(=O)Nc1cccc(C(F)(F)F)c1 (stereo not drawn) , what is it?
(A) > 100 µM

(Q) And then COCC1OCCN1C (stereo not drawn) , what is it?
(A) > 100 µM

(Q) And then O=C(NN1C(=O)/C(=C/c2ccc(Cl)cc2)N=C1c1ccccc1)c1c(Cl)c(Cl)c(Cl)c(Cl)c1-c1nc2ccccc2[nH]1 , what is it?
(A) > 100 µM

(Q) And then CC(C(O)c1ccccc1)N(C)/N=N/c1nc2c([nH]1)c(=O)n(C)c(=O)n2C (stereo not drawn) , what is it?
(A) > 100 µM

(Q) And then CCCN(CCC)C(=S)N/N=C/c1cccc(C)n1 , what is it?
(A) 8.34 µM

(Q) And then Nc1ccn(C2OC(COP(=O)(O)O)C(O)C2O)c(=O)n1 (stereo not drawn) , what is it?
(A) > 100 µM

(Q) And then CC(=O)O[C@H]1C(=O)[C@@]2(C)[C@H]([C@H](OC(=O)c3ccccc3)[C@]3(O)C[C@H](OC(=O)[C@H](OC(=O)CCC(=O)OC4CCC(S/N=C(N)/N=C(\N)N(C)C)CC4)[C@@H](NC(=O)c4ccccc4)c4ccccc4)C(C)=C1C3(C)C)[C@]1(OC(C)=O)CO[C@@H]1C[C@@H]2O (stereo partly drawn) , what is it?
(A) > 50 µM
